- Test system: human STING pathway in THP1-ISG cells
- assayNotes: STING human cell reporter assay
- Assay type: cell-based
- cond: IRF-inducible SEAP reporter, 24 h
pEC50: −log10 of the molar value.
observedProperty: pEC50

Study these solved cases before continuing.
In: Can you look up pEC50 on human STING pathway in THP1-ISG cells for Nc1ncnc2c1ncn2[C@@H]1O[C@@H]2CNS(=O)(=O)O[C@H]3[C@@H](F)[C@H](n4cnc5c(N)ncnc54)O[C@@H]3CO[P@](=O)(S)O[C@H]2[C@H]1F [Compound 20-S] ?
Out: 4.21

In: Notebook entry, human STING pathway in THP1-ISG cells assay: pEC50 of Nc1ncnc2c1ncn2[C@@H]1O[C@@H]2CNS(=O)(=O)O[C@H]3[C@@H](F)[C@H](n4cnc5c(=O)[nH]cnc54)O[C@@H]3CO[P@@](=O)(S)O[C@H]2[C@H]1F [Compound 17-R] = ?
Out: 6.01

In: For the record Nc1nc2c(ncn2[C@@H]2O[C@@H]3CNS(=O)(=O)O[C@H]4[C@H](F)[C@H](n5cnc6c(N)ncnc65)O[C@@H]4CO[P@@](=O)(S)O[C@H]3[C@H]2F)c(=O)[nH]1 (single isomer, unassigned) [Compound 16-R] , what value of pEC50 is listed for human STING pathway in THP1-ISG cells?
Out: 5.74

P: Nc1nc(N)c2ncn([C@@H]3O[C@@H]4COP(=O)(O)O[C@H]5[C@@H](F)[C@H](n6cnc7c(N)ncnc76)O[C@@H]5CNS(=O)(=O)O[C@H]4[C@H]3F)c2n1 [Compound 44]
Q: Nc1nc2c(ncn2[C@@H]2O[C@@H]3CNS(=O)(=O)O[C@H]4[C@H](F)[C@H](n5cnc6c(N)ncnc65)O[C@@H]4COP(=O)(O)O[C@H]3[C@H]2F)c(=O)[nH]1 [Compound 13]
In: Given P and given Q , which shows the smaller recorded pEC50? Answer = label.
Out: P
(P: 5.58, Q: 7.70)

----------
- experimentalTarget: human STING (Homo sapiens (Human), UniProt Q86WV6, H232R)
- Sequence (Q86WV6 139-379 H232R): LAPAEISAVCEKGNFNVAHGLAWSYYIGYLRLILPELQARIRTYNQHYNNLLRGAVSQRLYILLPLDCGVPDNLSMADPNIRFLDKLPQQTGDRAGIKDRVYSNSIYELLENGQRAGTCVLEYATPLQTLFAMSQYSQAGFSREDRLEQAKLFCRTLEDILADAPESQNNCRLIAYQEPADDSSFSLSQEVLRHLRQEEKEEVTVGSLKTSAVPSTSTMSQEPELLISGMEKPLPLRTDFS
- assayNotes: STING SPA binding assay
- cond: displacement of [3H]-2′3′-cGAMP from biotinylated recombinant STING (residues 139-379, H232R); read-out: hSTING SPA IC50
pIC50: −log10 of the molar value.
observedProperty: pIC50

In: Recorded pIC50 of Nc1nc2c(ncn2[C@@H]2O[C@@H]3COP(=O)(O)O[C@H]4[C@@H](F)[C@H](n5cnc6c(N)ncnc65)O[C@@H]4CNS(=O)(=O)O[C@H]3[C@H]2OCc2ccccc2)c(=O)[nH]1 , please.
Out: < 4.00

Let us examine a further case.
In: Recorded pIC50 for COc1ccc(CO[C@@H]2[C@@H]3OS(=O)(=O)NC[C@H]4O[C@@H](n5cnc6c(N)ncnc65)[C@H](F)[C@@H]4OP(=O)(O)OC[C@H]3O[C@H]2n2cnc3c(N)ncnc32)cc1 , please?
Out: < 4.00

----------
- System: human STING pathway in THP1-ISG cells
- assayNotes: STING human cell reporter assay
- Format: cell-based
- cond: IRF-inducible SEAP reporter, 24 h
pEC50: −log10 of the molar value.
observedProperty: pEC50

Take a look at these entries with their results.
In: For the compound Nc1ncnc2c1ncn2[C@@H]1O[C@@H]2CNS(=O)(=O)O[C@H]3C[C@H](n4cnc5cc(Cl)c(Cl)cc54)O[C@@H]3COP(=O)(O)O[C@H]2[C@H]1F [Compound 32] , what pEC50 is on record?
Out: 6.74

In: What value of measured pEC50 is listed for Nc1nc2c(ncn2[C@@H]2O[C@@H]3CO[P@](=O)(S)O[C@H]4[C@@H](F)[C@H](n5cnc6c(N)ncnc65)O[C@@H]4CNS(=O)(=O)O[C@H]3[C@H]2F)c(=O)[nH]1 (single isomer, unassigned) [Compound 18-S] ?
Out: 4.68

In: Which pEC50 value is on record for Nc1nc2c(ncn2[C@@H]2O[C@@H]3COP(=O)(O)O[C@H]4[C@@H](F)[C@H](n5cnc6c(N)ncnc65)O[C@@H]4CNS(=O)(=O)O[C@H]3[C@@H]2F)c(=O)[nH]1 [Compound 26] ?
Out: 7.52

a: Nc1ncnc2c1ncn2[C@@H]1O[C@@H]2CO[P@@](=O)(S)O[C@H]3[C@@H](F)[C@H](n4cnc5c(=O)[nH]cnc54)O[C@@H]3COS(=O)(=O)O[C@H]2[C@H]1F (single isomer, unassigned) [Compound 22-R]
b: Nc1ncnc2c1ncn2[C@@H]1O[C@@H]2CNS(=O)(=O)O[C@H]3C[C@H](n4cnc5cncnc54)O[C@@H]3COP(=O)(O)O[C@H]2[C@H]1F [Compound 33]
In: Hi, I'm comparing a with b and wondering which one has the bigger number for pEC50. Any idea? Returns: label corresponding to the selected item.
Out: a

1: Nc1nc2c(ncn2[C@@H]2O[C@@H]3CO[P@@](=O)(S)O[C@H]4[C@@H](F)[C@H](n5cnc6c(N)ncnc65)O[C@@H]4CNS(=O)(=O)O[C@H]3[C@@H]2F)c(=O)[nH]1 (single isomer, unassigned) [Compound 34-R]
2: Nc1ncnc2c1ncn2[C@@H]1O[C@@H]2CNS(=O)(=O)O[C@H]3[C@@H](F)[C@H](n4cnc5c(N)ncnc54)O[C@@H]3CO[P@@](=O)(S)O[C@H]2[C@H]1F [Compound 20-R]
3: Nc1nc2c(ncn2[C@@H]2O[C@@H]3COP(=O)(O)O[C@H]4[C@@H](O)[C@H](n5cnc6c(N)ncnc65)O[C@@H]4CNS(=O)(=O)O[C@H]3[C@H]2F)c(=O)[nH]1 [Compound 9]
4: Nc1ncnc2c1ncn2[C@@H]1O[C@@H]2CNS(=O)(=O)O[C@H]3[C@@H](F)[C@H](n4cnc5c(N)ncnc54)O[C@@H]3COP(=O)(O)O[C@H]2[C@H]1F [Compound 1]
In: Rank ascending by pEC50. Please respond by ranking the labels in the order requested.
Out: 1, 3, 2, 4

P: Nc1ncnc2c1ncn2[C@@H]1O[C@@H]2CNS(=O)(=O)O[C@H]3[C@@H](F)[C@H](n4cnc5c(N)ncnc54)O[C@@H]3CNS(=O)(=O)O[C@H]2[C@H]1F [Compound 47]
Q: Nc1ncnc2c1ncn2[C@@H]1O[C@@H]2CO[P@](=O)(S)O[C@H]3[C@@H](F)[C@H](n4cnc5c(=O)[nH]cnc54)O[C@@H]3COS(=O)(=O)O[C@H]2[C@H]1F (single isomer, unassigned) [Compound 22-S]
In: I need your help: which of the pair P , Q has higher pEC50? Answer = label.
Out: Q
(Q: 7.01, P: 6.54)

----------
- Test system: human STING pathway in THP1-ISG cells
- assayNotes: STING human cell reporter assay
- Assay type: cell-based
- cond: IRF-inducible SEAP reporter, 24 h
observedProperty: EC50 (nM)

Solved cases below.
In: # query: EC50 of entry Nc1nc2c(ncn2[C@@H]2O[C@@H]3CO[P@@](=O)(S)O[C@H]4[C@@H](F)[C@H](n5cnc6c(N)ncnc65)O[C@@H]4CNS(=O)(=O)O[C@H]3[C@H]2F)c(=O)[nH]1 (single isomer, unassigned)
Out: 93

In: Quick one: EC50 for Nc1nc2c(ncn2[C@@H]2O[C@@H]3CO[P@](=O)(S)O[C@H]4[C@@H](F)[C@H](n5cnc6c(N)ncnc65)O[C@@H]4CNS(=O)(=O)O[C@H]3[C@@H]2F)c(=O)[nH]1 (single isomer, unassigned) ?
Out: 47700

A: Nc1nc2c(ncn2[C@@H]2O[C@@H]3CNS(=O)(=O)O[C@H]4[C@H](F)[C@H](n5cnc6c(N)ncnc65)O[C@@H]4CO[P@](=O)(S)O[C@H]3[C@H]2F)c(=O)[nH]1 (single isomer, unassigned)
B: Nc1ncnc2c1ncn2[C@H]1C[C@@H]2NS(=O)(=O)OC[C@H]3O[C@@H](n4cnc5c(=O)[nH]cnc54)[C@H](F)[C@@H]3OP(=O)(O)OC[C@H]2O1
In: Select one. Lower EC50: A or B Refer to your chosen item by its label in the answer.
Out: A

----------
- System: human STING pathway in THP1-ISG cells
- assayNotes: STING human cell reporter assay
- Format: cell-based
- cond: IRF-inducible SEAP reporter, 24 h
pEC50: −log10 of the molar value.
observedProperty: pEC50

In: Given the entry Nc1ncnc2c1ncn2[C@@H]1O[C@@H]2COP(=O)(O)O[C@H]3[C@@H](F)[C@H](n4cnc5c(=O)[nH]cnc54)O[C@@H]3CNS(=O)(=O)O[C@H]2[C@H]1F [Compound 24] , what pEC50 was observed with human STING pathway in THP1-ISG cells?
Out: 7.15

A: Nc1ncnc2c1ncn2[C@@H]1O[C@@H]2CNS(=O)(=O)O[C@H]3[C@@H](F)[C@H](n4cnc5c(N)ncnc54)O[C@@H]3CO[P@@](=O)(S)O[C@H]2[C@H]1F [Compound 2]
B: CO[C@@H]1[C@@H]2OS(=O)(=O)NC[C@H]3O[C@@H](n4cnc5c(N)ncnc54)[C@H](F)[C@@H]3OP(=O)(O)OC[C@H]2O[C@H]1n1cnc2c(=O)[nH]c(N)nc21 [Compound 4]
C: Nc1ncnc2c1ncn2[C@@H]1O[C@@H]2CO[P@](=O)(S)O[C@H]3[C@@H](F)[C@H](n4cnc5c(=O)[nH]cnc54)O[C@@H]3CNS(=O)(=O)O[C@H]2[C@H]1F (single isomer, unassigned) [Compound 31-S]
D: Nc1nc2c(ncn2[C@@H]2O[C@@H]3CO[P@@](=O)(S)O[C@H]4[C@@H](O)[C@H](n5cnc6c(N)ncnc65)O[C@@H]4CNS(=O)(=O)O[C@H]3[C@H]2F)c(=O)[nH]1 [Compound 14-R]
In: Parameters: sort_field (pEC50), sort_dir (desc). Your answer should be the labels, listed in the requested order.
Out: A, C, D, B
(A: 7.92, C: 6.01, D: 5.74, B: 4.19)
